biological target: ΔF508-CFTR (Homo sapiens, UniProt P13569, DEL508-508); assay: Membrane potential optical assay for potentiators of ΔF508-CFTR (FLIPR III, voltage sensing dyes); settings: temperature-corrected ΔF508 CFTR NIH 3T3 cells, forskolin activation
Sequence (P13569 with tags, fused parts or gaps DEL508-508): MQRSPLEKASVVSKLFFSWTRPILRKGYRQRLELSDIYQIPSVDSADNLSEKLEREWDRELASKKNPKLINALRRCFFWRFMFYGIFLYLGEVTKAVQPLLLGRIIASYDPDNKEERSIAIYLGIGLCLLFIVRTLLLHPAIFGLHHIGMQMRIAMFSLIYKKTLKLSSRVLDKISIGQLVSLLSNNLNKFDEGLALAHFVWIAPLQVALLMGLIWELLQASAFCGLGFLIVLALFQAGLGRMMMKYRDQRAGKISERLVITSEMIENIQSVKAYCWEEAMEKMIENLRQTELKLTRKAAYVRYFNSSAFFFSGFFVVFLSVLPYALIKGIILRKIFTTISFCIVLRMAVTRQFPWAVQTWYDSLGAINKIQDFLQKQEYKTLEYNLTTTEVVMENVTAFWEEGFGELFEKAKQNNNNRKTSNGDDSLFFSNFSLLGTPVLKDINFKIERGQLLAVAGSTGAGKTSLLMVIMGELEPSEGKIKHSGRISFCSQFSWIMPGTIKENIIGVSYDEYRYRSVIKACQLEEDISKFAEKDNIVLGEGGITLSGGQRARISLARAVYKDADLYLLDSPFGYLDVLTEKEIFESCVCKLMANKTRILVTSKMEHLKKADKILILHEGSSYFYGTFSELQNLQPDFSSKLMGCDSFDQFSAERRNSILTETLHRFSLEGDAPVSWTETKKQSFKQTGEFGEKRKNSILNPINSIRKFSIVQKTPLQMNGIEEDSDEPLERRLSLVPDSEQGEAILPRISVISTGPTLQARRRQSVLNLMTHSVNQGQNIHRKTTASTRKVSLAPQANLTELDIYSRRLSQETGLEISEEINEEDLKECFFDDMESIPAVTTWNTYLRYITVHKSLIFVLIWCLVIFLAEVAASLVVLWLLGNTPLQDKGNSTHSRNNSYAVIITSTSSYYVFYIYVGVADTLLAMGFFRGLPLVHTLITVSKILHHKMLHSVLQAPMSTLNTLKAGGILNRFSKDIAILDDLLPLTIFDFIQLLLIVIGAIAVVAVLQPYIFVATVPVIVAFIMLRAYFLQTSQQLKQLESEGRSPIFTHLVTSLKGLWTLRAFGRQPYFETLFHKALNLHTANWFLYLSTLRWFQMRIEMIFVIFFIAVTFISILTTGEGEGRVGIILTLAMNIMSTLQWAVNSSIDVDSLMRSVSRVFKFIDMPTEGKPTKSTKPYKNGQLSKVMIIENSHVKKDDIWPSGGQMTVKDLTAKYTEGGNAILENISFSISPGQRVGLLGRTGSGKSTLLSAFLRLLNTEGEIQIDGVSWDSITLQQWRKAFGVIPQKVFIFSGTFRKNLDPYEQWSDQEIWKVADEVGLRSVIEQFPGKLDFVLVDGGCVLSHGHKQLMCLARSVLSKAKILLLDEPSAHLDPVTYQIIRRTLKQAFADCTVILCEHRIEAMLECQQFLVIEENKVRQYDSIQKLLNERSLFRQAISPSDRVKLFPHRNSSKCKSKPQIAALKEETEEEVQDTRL
pEC50: −log10 of the molar value.
Result type: pEC50

compound="CC1(c2cc(F)c(NC(=O)C3CNc4cc(OC(F)(F)F)ccc4O3)cc2O)CCCCC1 (centres unmarked)" result_type=pEC50 result="> 5.30"
compound="Cc1ccc(NC(=O)C2CNc3cc(OC(F)(F)F)ccc3O2)c(CCCN(C)C)c1 (centres unmarked)" result_type=pEC50 result="4.70 to 5.30"
compound="Cc1cc(N2C3CCC2CC3)ncc1NC(=O)C1CNc2ccc(F)cc2O1 (centres unmarked)" result_type=pEC50 result="4.70 to 5.30"
compound="CC1(c2cc(F)c(NC(=O)C3CNc4ccccc4O3)cc2O)CCCCC1 (centres unmarked)" result_type=pEC50 result="> 5.30"
compound="Cc1ccc(NC(=O)C2CNc3cc(OC(F)(F)F)ccc3O2)c(CCN2CCOCC2)c1 (centres unmarked)" result_type=pEC50 result="> 5.30"
compound="CC(C)(C)c1ccc(NC(=O)C2CNc3ccccc3[S+]2[O-])cc1O (centres unmarked)" result_type=pEC50 result="> 5.30"
compound="CN1CCN(Cc2cc(C3CCCC3)c(O)cc2NC(=O)C2CNc3ccccc3O2)CC1 (centres unmarked)" result_type=pEC50 result="> 5.30"
compound="C[C@H]1CCCN1c1ccc(NC(=O)C2CNc3ccccc3O2)c(C(F)(F)F)c1 (some centres unmarked)" result_type=pEC50 result="> 5.30"
